- target.entity: T1, eukaryotically produced human IL-6 (human, UniProt P05231 30-212)
- T1 construct: also called eukIL-6; Euk IL-6
- method.summary: SPR; purified Fab
reported.property: pKd
Field pKd (float): negative decimal logarithm of the concentration in molar.

Per the record, Fab 20A4 (Fab, V domains shown, Fab) VH: EVQLQESGPGLVKPSQTLSLTCTVSGGSITTRYYAWSWIRQPPGKGLEWMGVIDYDGDTYYSPSLKSRTSISWDTSKNQFSLQLSSVTPEDTAVYYCARDPDVVTGFHYDYWGQGTQVTVSS VL: LNFMLTQPPSVSGTLGKTVTISCAGTSSDIGGYNYVSWYQQLPGTAPKLLIHRVSTRASGIPDRFSGSKSGNTASLTISGLRSEDEANYYCASYRNFNNAVFGGGTQLTVLG has pKd of 9.09

Per the record, Fab 18C11 (Fab, V domains shown, Fab) VH: EVQLVESGGGLVQPGGSLRLSCAASGFTFSSYAMSWVRQAPGKGLEWVSAINSGGGSTSYADSVKGRFTISRDNAKNTLYLQMNSLKPEDTAVYYCAKEGDTGWKDPMYDYWGQGTQVTVSS VL: QSVVTQPSALSVTLGQTAKITCQGGGLRSSYAHWYQQKPGQAPVLVIYDDDSRPSGIPERFSGSSSGGRATLTISGAQAEDEGDYYCQSADSSGNAAVFGGGTHLTVLG has pKd of 8.54
